Tested on: UACC-257 melanoma
Assay: NCI-60 one-dose screen, 48 h (100 = growth as untreated, 0 = no growth, -100 = all killed)
Conditions: 10 µM
The panel holds about 83,000 compounds, 20% with a hit somewhere; the sample as a whole holds those more often.
// values below are reported growth
attribute_measured: growth (%)

INSERT INTO measurements (compound, result_number) VALUES
  ('CN(C)CCn1c2ccc(N)cc2c2nc3ccccc3nc21', 38.4),
  ('O=C1[C@@H]2Cc3c([nH]c4ccccc34)[C@H](c3c(Cl)cccc3Cl)N2C(=O)CN1C1CCN(Cc2c(F)cccc2F)CC1', 99.1),
  ('O=C(CSc1nnc(-c2cccs2)n1-c1ccccc1)Nc1ccc(F)cc1', 103),
  ('CC(C)SC1=NC(=C(C(=N1)NC2=ClC=CC=C2)C#N)C3=CC=CC=C3', 100),
  ('COc1ccccc1/C=C/C=N/NC1=NC2C(S1)N(C)C(=O)N2c1ccccc1 (stereo unspecified)', 79.8),
  ('CS(=O)(=O)c1ccc2c(c1)c1c(n2C(=O)c2ccc(Cl)cc2)CCCC1', 56.8);

###

Test system: SK-MEL-28 melanoma
Experiment: NCI-60 one-dose screen, 48 h (100 = growth as untreated, 0 = no growth, -100 = all killed)
Details: 10 µM unless noted
Compounds without any hit were thinned out: in the full panel of roughly 83,000, 20% have a hit.
Under this convention, yes denotes growth strictly below 80% and no denotes growth at or above 80%.

INSERT INTO measurements (smiles_text, assay_target, class) VALUES
  ('Cc1ccc(NC(=O)c2cc(/C=C/C(=O)NO)cc(C(F)(F)F)c2)cc1Nc1nccc(-c2cccnc2)n1', 'SK-MEL-28 melanoma', 'yes'),
  ('CC(C)Sc1nc(NC2CC2)c(C#N)c(-c2ccccc2)n1', 'SK-MEL-28 melanoma', 'no'),
  ('COCCOc1ccc(-c2csc(NC(C)=O)n2)cc1NS(=O)(=O)c1cccc2c(N(C)C)cccc12', 'SK-MEL-28 melanoma', 'no'),
  ('COc1ccc(NC(=O)Cn2cc(CN3C(=O)c4ccc([N+](=O)[O-])cc4C3=O)nn2)cc1', 'SK-MEL-28 melanoma', 'no'),
  ('CCCCCCNC(=O)Oc1ccc(/C(=C(/C)c2ccccc2)c2ccc(OCCN(C)C)cc2)cc1', 'SK-MEL-28 melanoma', 'yes'),
  ('O=C1[C@@H]2Cc3c([nH]c4ccccc34)[C@H](c3c(Cl)cccc3Cl)N2C(=O)CN1C1CCN(Cc2c(F)cccc2F)CC1', 'SK-MEL-28 melanoma', 'yes'),
  ('O=C(/C=C/c1cn(-c2ccccc2)nc1-c1ccc(Cl)cc1)c1cc2ccccc2oc1=O', 'SK-MEL-28 melanoma', 'no'),
  ('O=C(/C=C1\C=CN(CCCCCCF)c2ccccc21)n1ccc2ccccc21', 'SK-MEL-28 melanoma', 'no'),
  ('CCN(CC)c1ccc2cc(C(=O)NCCOCCOCCOCCn3cc(CCC(=O)Nc4ccc(C(=O)c5ccc(NC(=O)OC(C)(C)C)cc5)cc4)nn3)c(=O)oc2c1', 'SK-MEL-28 melanoma', 'no'),
  ('C=CCn1c(SCC(=O)Nc2ccc(OC)cc2)nnc1-c1ccc(Cl)cc1', 'SK-MEL-28 melanoma', 'no'),
  ('N#C/C(=C\c1ccc(-c2ccc(F)cc2)o1)C(=O)Nc1ncc(Cc2ccc(Cl)cc2Cl)s1', 'SK-MEL-28 melanoma', 'yes'),
  ('Oc1ccc(CSc2nnc(-c3ccncc3)n2-c2ccccc2)c2cccnc12', 'SK-MEL-28 melanoma', 'yes'),
  ('COc1ccc(-c2nc3cc(Cl)c(Cl)cc3n2CC(=O)N=Nc2c(O)[nH]c3ccc(Br)cc23)cc1', 'SK-MEL-28 melanoma', 'yes');

###

System: OVCAR-4 ovarian
Assay: NCI-60 one-dose screen, 48 h
Conditions: 10 µM unless noted
Compounds without any hit were thinned out: in the full panel of roughly 83,000, 20% have a hit. The source made the active and inactive calls. How the source made its calls: active means growth percent below 10; inactive means the rest.
Outcome codes: Y = active, N = inactive

INSERT INTO measurements (molecule, class) VALUES
  ('COc1ccc(C2CC(c3ccc(Nc4nc(NCCO)nc(Nc5ccc(Cl)cc5)n4)cc3)=Nc3c(N)nc(N)nc3N2)cc1 (stereo not given)', 'N'),
  ('O=C(CCCCCCN1CC(=O)N2[C@@H](c3ccc(Cl)c(F)c3)c3[nH]c4ccccc4c3C[C@H]2C1=O)NO', 'N'),
  ('COc1ccc(/C(C)=C(\c2ccc(Cl)cc2)c2ccc(OCCN)cc2)cc1', 'N'),
  ('C(=C(\C1=NCCN1)n1cnc2ccccc21)/c1cccc2ccccc12', 'N'),
  ('O=C(NNc1nc2cc(F)c(F)cc2n2cccc12)c1ccncn1', 'Y'),
  ('COc1cc(C(=O)c2cc(C(C)=O)c3c4ccccc4ccn23)cc(OC)c1OC', 'N'),
  ('Cc1nn(-c2ccc(Cl)cc2)c(C)c1N=Nc1ccc2oc(=O)ccc2c1', 'N'),
  ('COc1ccc(Cn2cc3c(c2-c2cc(OC)c(OC)c(OC)c2)CCCc2cnoc2-3)cc1N', 'N'),
  ('COc1ccc(N)cc1C(=O)Nc1cccc(-c2cc(=O)c3c(OC)c(OC)c(OC)cc3o2)c1', 'N'),
  ('N#C/C(=C\c1ccc2ccccc2c1)C(=O)Nc1sc2c(c1C#N)CCC2', 'N'),
  ('COc1cc(/C=C/C(=O)c2ccc(N3CCN(C)CC3)cc2)ccc1F', 'N'),
  ('COc1ccc(NC(=O)[C@H](C)N)cc1C(=O)Nc1cccc(-c2cc(=O)c3c(OC)c(OC)c(OC)cc3o2)c1', 'N'),
  ('Cn1cc(-c2nn3c(=O)cc(-c4ccccc4)nc3s2)c2cc(F)ccc21', 'N'),
  ('O=C(NNc1nc2cc(F)ccc2n2cncc12)c1cnccn1', 'N'),
  ('CC(C)Sc1nc(NC2CC2)c(C#N)c(-c2ccccc2)n1', 'Y'),
  ('CC1(C)CC[C@]2(C(=O)N3CCCNCC3)CC[C@]3(C)C(=CC[C@@H]4[C@@]5(C)CCC(=O)C(C)(C)[C@@H]5CC[C@]43C)[C@H]2C1', 'N'),
  ('O=C1c2c(c3c4cc(O)ccc4oc3c3[nH]c4ccccc4c23)C(=O)N1O', 'N'),
  ('CCOC(=O)/C(F)=C/C1CC1CCc1cccc(C(F)(F)F)c1 (stereo not given)', 'N'),
  ('CCOC(=O)c1c(NCC(=O)Nc2cccc(Cl)c2)sc2c1CCCC2', 'N'),
  ('C=CCn1c(SCC(=O)Nc2cccc(C(=O)/C=C/c3ccc(Br)cc3)c2)nc2ccccc2c1=O', 'N'),
  ('COc1ccc([C@H]2[C@H](O)C(=O)N2c2cc(OC)c(OC)c(OC)c2)cc1Cl', 'N'),
  ('CC1=CC(=O)CC(C)(C)[C@@]1(O)/C=C/C(C)=C\C(=O)O', 'Y'),
  ('CS(=O)(=O)c1nccc(-c2c(-c3ccc(F)c(OCCc4ccccc4)c3)nc3sccn23)n1', 'N'),
  ('N#Cc1c(NC(=O)c2ccc(F)c(Cl)c2)sc2c1CCC(=O)C2', 'Y'),
  ('O=C(CCCCCCN1CC(=O)N2[C@@H](c3ccccc3)c3[nH]c4ccccc4c3C[C@H]2C1=O)NO', 'N'),
  ('O=C(NCCCNc1cc(-c2cn(-c3ccccc3)nc2-c2cccc(O)c2)ccn1)Nc1cccc(C(F)(F)F)c1', 'N'),
  ('Cc1ccccc1NC1CC(=O)N(c2ccc(Cl)cc2Cl)C1=O (stereo not given)', 'N'),
  ('COC(=O)Nc1ccc(-c2nc(-c3cccc(O)c3)c(-c3ccnc(Br)c3)[nH]2)cc1', 'N'),
  ('CCOC(=O)c1c(NCC(=O)Nc2cccc([N+](=O)[O-])c2)sc2c1CCCC2', 'Y'),
  ('C/C(=C(/c1ccc(O)cc1)c1ccc(OCCN2CCCCCC2)cc1)c1ccccc1', 'N');

###

Tested on: K-562 leukemia
Assay: NCI-60 one-dose screen, 48 h
Settings: 10 µM unless noted
About 83,000 compounds went through this panel and 20% of them were active in at least one assay; those are over-represented in the sample as a whole. Activity calls are given as the source filed them. How the source made its calls: active means growth percent below 10; inactive means the rest.
Outcome codes: active, inactive

INSERT INTO results (molecule, assay_target, class) VALUES
  ('Cc1cc(-c2ccc3nc(N)sc3c2)nc2ccc3[nH]ncc3c12', 'K-562 leukemia', 'inactive'),
  ('O=C(Nc1cc(Cl)cc(Cl)c1)Nc1ccc2oc(=O)ccc2c1', 'K-562 leukemia', 'inactive'),
  ('COc1ccc(/C=C/C(=O)c2nnn(-c3ccc(Br)cc3)c2C)cc1OC', 'K-562 leukemia', 'inactive'),
  ('Cc1cc(O)c2c(c1)C(=O)C(c1c(C)cc3c(c1O)C(=O)C=CC3=O)=CC2=O', 'K-562 leukemia', 'inactive'),
  ('NC(N)=NS(=O)(=O)c1ccc(N=NC2C(=O)NN(c3ccccc3)C2=O)cc1 (configuration not stated)', 'K-562 leukemia', 'inactive'),
  ('CC1(COc2ccc3ncc(C#Cc4cncc(C(=O)Nc5cc(C(C)(C)C)on5)c4)n3n2)COC1', 'K-562 leukemia', 'inactive'),
  ('CC(C)=CCC[C@](C)(O)[C@H]1CC[C@]2(C)[C@@H]1CC[C@@H]1[C@@]3(C)CCC(NC(=O)c4ccccc4C(=O)O)C(C)(C)[C@@H]3CC[C@]12C (some centres not stated)', 'K-562 leukemia', 'inactive'),
  ('O=c1oc2ccc(-c3ccc(F)cc3F)cc2c(=O)n1-c1ccc(F)c(F)c1', 'K-562 leukemia', 'inactive'),
  ('CCN(CC)CCN1C(=O)c2c(c3c4cccnc4[nH]c3c3ccc4ccccc4c23)C1=O', 'K-562 leukemia', 'inactive'),
  ('O=C(NCCCNc1cc(-c2cn(-c3ccccc3)nc2-c2cccc(O)c2)ccn1)Nc1cccc(C(F)(F)F)c1', 'K-562 leukemia', 'inactive'),
  ('C#C[C@]1(O)CC[C@H]2[C@@H]3CC=C4c5sc(Nc6cccc(Cl)n6)nc5CC[C@]4(C)[C@H]3CC[C@@]21C', 'K-562 leukemia', 'active'),
  ('CCN(CC)CCCC(C)NCC(=O)NC(c1ccc2c(c1)OCO2)c1cc(Cl)c2cccnc2c1O (configuration not stated)', 'K-562 leukemia', 'inactive'),
  ('COc1cccc(/C=C/C(=O)c2ccc(NC(=O)COc3cccc4cccnc34)cc2)c1', 'K-562 leukemia', 'inactive'),
  ('CSc1ccc(/C(=N/N=C(N)N)c2ccccc2)cc1', 'K-562 leukemia', 'inactive'),
  ('C#Cc1ccc(NC(=O)c2ccc(/C=C/C(=O)c3nccn3C)cc2)c(F)c1', 'K-562 leukemia', 'inactive'),
  ('Nc1ccc(-c2nnc(SCc3ccc(O)c4ncccc34)n2-c2ccccc2)cc1', 'K-562 leukemia', 'inactive'),
  ('C#CCOc1ccc(C(Nc2ccc(OC)cc2)c2nnnn2C2CCCCC2)cc1 (configuration not stated)', 'K-562 leukemia', 'inactive'),
  ('CN(C)c1ncc(/C=C2\SC(=S)N(Cc3ccccc3Cl)C2=O)s1', 'K-562 leukemia', 'inactive'),
  ('Cc1nc(-c2cc3ccccc3c(N3CCN(C)CC3)n2)cs1', 'K-562 leukemia', 'inactive'),
  ('CN1CCN(c2ccc(C(=O)Nc3cccc(-c4cn(-c5ccc(S(N)(=O)=O)cc5)nn4)c3)cc2C(F)(F)F)CC1', 'K-562 leukemia', 'active'),
  ('CN1CCN(c2ccc3c(C(N)=O)c(NC(=O)c4ccc(C(C)(C)C)cc4)sc3c2)CC1', 'K-562 leukemia', 'inactive'),
  ('COc1ccc(C(=O)n2cc(C=O)c3ccccc32)cc1', 'K-562 leukemia', 'inactive'),
  ('Oc1ccc(CSc2nnc(-c3ccncc3)n2-c2ccccc2)c2cccnc12', 'K-562 leukemia', 'inactive'),
  ('O=C1Nc2ccc(Cl)cc2/C1=C/c1ccc(OCc2ccc(F)cc2)cc1', 'K-562 leukemia', 'inactive'),
  ('N#C/C(=C\c1ccc(-c2ccc(F)cc2)o1)C(=O)Nc1ncc(Cc2ccc(Cl)cc2Cl)s1', 'K-562 leukemia', 'inactive'),
  ('COc1cc(/C=C/C(=O)c2ccc(NC(=O)COc3cccc4cccnc34)cc2)cc(OC)c1OC', 'K-562 leukemia', 'inactive'),
  ('Cc1nn(-c2ccc(Br)cc2)c2nc(CCl)[nH]c(=O)c12', 'K-562 leukemia', 'inactive'),
  ('O=C(C[n+]1ccnc2ccccc21)c1ccc(O)c(O)c1', 'K-562 leukemia', 'inactive'),
  ('O=S(=O)(Nc1ccc(C2CC2)cc1)c1ccc(-c2cnc(C3CC3)o2)cc1', 'K-562 leukemia', 'inactive'),
  ('O=C(Nc1ccc(-c2nc(-c3cccc(O)c3)c(-c3ccnc(Br)c3)[nH]2)cc1)c1ccccc1', 'K-562 leukemia', 'active'),
  ('COC(=O)c1c(C(=O)OC)c2n(CC(=O)Nc3cccc4cccnc34)c3ccccc3n2c1C(=O)c1ccc(C)cc1', 'K-562 leukemia', 'inactive'),
  ('O=C(/C=C1\C=CN(CCCCF)c2ccccc21)n1ccc2ccccc21', 'K-562 leukemia', 'inactive'),
  ('C=CCn1c(SCC(=O)Nc2ccc(OC)cc2)nnc1-c1ccc(Cl)cc1', 'K-562 leukemia', 'inactive'),
  ('COc1ccc(C2CC(c3ccc(Nc4nc(NCCO)nc(Nc5ccc(Cl)cc5)n4)cc3)=Nc3c(N)nc(N)nc3N2)cc1 (configuration not stated)', 'K-562 leukemia', 'active'),
  ('C/C(=N\NC(=S)Nc1ccc(Br)cc1)c1cc2ccccc2oc1=O', 'K-562 leukemia', 'active'),
  ('CN1C(=O)/C(=C/C=C/c2ccco2)SC1=S', 'K-562 leukemia', 'inactive'),
  ('Oc1ccc(-c2nnc(SCc3ccc(O)c4ncccc34)o2)cc1', 'K-562 leukemia', 'inactive');
